experiment: qHTS assay to identify small molecule that activate the aryl hydrocarbon receptor (AhR) signaling pathway - cell viability counter screen (AID 743086); details: HepG2-AhR-luc viability, CellTiter-Fluor, 24 h; series mostly up to 70.3 µM;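 further: HepG2 liver cells carrying the AhR DRE luciferase reporter; nearly all actives have a fitted effect of over 45% in size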
Records with an inconclusive call do not appear. The source made the active and inactive calls. The call rests on the fitted dose curve; in most records, active means well fitted cell-killing curve with a large enough effect in the repeat runs; inconclusive means weak or mixed curves, or effect the other way; inactive means flat fitted curve, though single readings scatter.
Valid outcomes are listed here; reply with one: 1.0 for active, 0.0 for inactive

Past entries and their recorded results:
compound	assigned category
SC1CCCCC1	0.0
CCOc1ccc(S(=O)(=O)O)c2cccnc12	0.0
CCCOC(=O)c1ccccc1O	0.0
CC1CCCC(C)N1NC(=O)c1ccc(Cl)c(S(N)(=O)=O)c1 (centres undefined)	0.0
O=C(Cn1cnnn1)N[C@@H]1C(=O)N2C(C(=O)O)=C(CSc3nncs3)CS[C@H]12	0.0

Next, consider the following compound.
Give the logged outcome of this assay for the following compound: O=C(CCCN1CCN2CCCC2C1)c1ccc(F)cc1 (centres undefined)
0.0
